All figures here come from ChEMBL document CHEMBL4219117.

# target: Liver carboxylesterase 1 (Homo sapiens, UniProt P23141)
# Sequence (P23141 whole entry): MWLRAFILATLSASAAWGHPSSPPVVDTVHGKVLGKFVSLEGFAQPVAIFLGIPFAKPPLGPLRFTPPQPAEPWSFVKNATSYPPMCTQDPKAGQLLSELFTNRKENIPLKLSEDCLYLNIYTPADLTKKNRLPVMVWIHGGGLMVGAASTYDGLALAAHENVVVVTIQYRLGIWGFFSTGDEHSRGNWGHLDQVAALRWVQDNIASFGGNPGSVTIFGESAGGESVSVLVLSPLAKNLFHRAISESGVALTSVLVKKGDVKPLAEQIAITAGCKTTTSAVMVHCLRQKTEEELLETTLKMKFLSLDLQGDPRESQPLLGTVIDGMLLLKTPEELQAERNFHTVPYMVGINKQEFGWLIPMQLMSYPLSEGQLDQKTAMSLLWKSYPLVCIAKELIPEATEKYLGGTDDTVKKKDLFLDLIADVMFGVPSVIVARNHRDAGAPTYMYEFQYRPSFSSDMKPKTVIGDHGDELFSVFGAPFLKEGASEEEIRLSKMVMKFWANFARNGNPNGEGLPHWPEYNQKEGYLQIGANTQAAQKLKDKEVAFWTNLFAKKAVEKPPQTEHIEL
# measurement-notes: Prodrug activation in human intestine microsomes assessed as carboxylesterase 1-mediated indomethacin formation at 0.25 mM after 30 to 1440 mins by HPLC analysis
# test-parameters: 250 µM

chemical-structure | target | Drug metabolism
COc1ccc2c(c1)c(CC(=O)OCC(C)(C)C)c(C)n2C(=O)c1ccc(Cl)cc1 | Liver carboxylesterase 1 (Homo sapiens, UniProt P23141) | Metabolite_Notdetected
CC[C@@H](OC(=O)Cc1c(C)n(C(=O)c2ccc(Cl)cc2)c2ccc(OC)cc12)c1ccccc1 | Liver carboxylesterase 1 (Homo sapiens, UniProt P23141) | Metabolite_Notdetected
CC[C@@H](C)OC(=O)Cc1c(C)n(C(=O)c2ccc(Cl)cc2)c2ccc(OC)cc12 | Liver carboxylesterase 1 (Homo sapiens, UniProt P23141) | Metabolite_Notdetected
